- System: A498
- assay: NCI tumour cell line growth inhibition, 48 h
Calls of active or inactive are those of the source. No stated cut-off is given here; in the data, active = GI50 up to about 1.1 µM and inactive = higher.
measure_name: GI50

See these solved cases before continuing.
CN(C)CCCCN1c2ccccc2Sc2cc(N=[N+]=[N-])ccc21
10 µM (inactive)
CC1(C)O[C@H]([C@H](O)c2nnc3ccc(Cl)nn23)[C@@H]([C@H]2COC(C)(C)O2)O1
> 100 µM (inactive)

Data request: Which GI50 reading was recorded for the molecule N#CCCN(c1ccc(/C=N/c2ccc(C(=O)O)cc2)cc1)S(=O)(=O)c1ccccc1 ?
Data returned: > 100 µM (inactive)

Data request: Which GI50 reading was recorded for the molecule C=C(C(=O)OC)[C@H]1CC/C(C)=C/CC[C@@](C)(O)C=CC[C@@]2(C)O[C@@H]2C1 ?
Data returned: 20.7 µM (inactive)

Data request: Which GI50 reading was recorded for the molecule COC(=O)C(Br)C1CCc2ccccc21 (stereo not given) ?
Data returned: > 100 µM (inactive)
